Taken from patent US20240317708A1.

Assay: Caco-2 permeability assay (CacoReady kit)
Format: in vitro ADME
Settings: human
experimental_endpoint: Papp

Study these solved cases before continuing.
COC(=O)/C=C/CC[C@H](NC(=O)c1oc2ccccc2c1C)C(=O)Nc1cccn(CC(=O)NC2CC3CCC2CC3)c1=O (stereo partly drawn)
1 to 10 ×10⁻⁶ cm/s
CC(C)OC(=O)/C=C/CC[C@H](NC(=O)c1cn[nH]n1)C(=O)Nc1cccn(CC(=O)NC23CCC(C2)C3)c1=O
< 1 ×10⁻⁶ cm/s
Cc1nc2ncccc2cc1C(=O)N[C@@H](CC/C=C/C(=O)NC1CCCC1)C(=O)Nc1cccn(CC(=O)NC23CC(C2)C3)c1=O
< 1 ×10⁻⁶ cm/s
COC(=O)/C=C/CC[C@H](NC(=O)c1oc2ccccc2c1C)C(=O)Nc1cccn(CC(=O)NC[C@@H]2CC[C@H]3C[C@@H]2C3(C)C)c1=O
1 to 10 ×10⁻⁶ cm/s
COC(=O)/C=C/CC[C@H](NC(=O)c1oc2ccccc2c1C)C(=O)Nc1cccn(CC(=O)NC23CC4CC5C2C[C@@H]2C[C@H]5C(C4)[C@H]3C2)c1=O
1 to 10 ×10⁻⁶ cm/s

Proceed to the following item.
Entry under test: Cn1cncc1C(=O)N[C@@H](CC/C=C/S(C)(=O)=O)C(=O)Nc1cccn(CC(=O)NC2C3CC4CC(C3)CC2C4)c1=O (stereo partly drawn) . Its Papp was < 1 ×10⁻⁶ cm/s

---

Experiment: Caco-2 permeability assay (CacoReady kit)
Format: in vitro ADME
Details: human
A collection of compounds and their measured Papp

CCCCCNC(=O)/C=C/CC[C@H](NC(=O)c1nc2ccccc2s1)C(=O)Nc1cccn(CC(=O)NC23CC(C2)C3)c1=O [III-142]
1 to 10 ×10⁻⁶ cm/s
COC(=O)/C=C/CC[C@H](NC(=O)c1cc(Cl)c(Cl)s1)C(=O)Nc1cccn(CC(=O)NC2C3CC4CC(C3)CC2C4)c1=O (stereo partly shown) [III-20]
1 to 10 ×10⁻⁶ cm/s
CCOC(=O)/C=C/CC[C@H](NC(=O)c1cncn1C)C(=O)Nc1cccn(CC(=O)NC2C3CC4CC(C3)CC2C4)c1=O (stereo partly shown) [III-99]
< 1 ×10⁻⁶ cm/s

Entry under test: COC(=O)/C=C/CC[C@H](NC(=O)c1oc2ccccc2c1C)C(=O)Nc1cccn(CC(=O)NC23CC4CC(CC(F)(C4)C2)C3)c1=O [III-51] . Its Papp was 1 to 10 ×10⁻⁶ cm/s

Entry under test: COC(=O)/C=C/CC[C@H](NC(=O)c1cncn1C)C(=O)Nc1cccn(CC23CC4CC(CC(C4)C2)C3)c1=O [III-78] . Its Papp was < 1 ×10⁻⁶ cm/s

Entry under test: COC(=O)/C=C/CC[C@H](NC(=O)c1cnnn1C)C(=O)Nc1cccn(CC(=O)NC2C3CC4CC(C3)CC2C4)c1=O (stereo partly shown) [III-22] . Its Papp was 1 to 10 ×10⁻⁶ cm/s

Entry under test: COC(=O)/C=C/CC[C@H](NC(=O)c1sc(C(F)(F)F)nc1C)C(=O)Nc1cccn(CC(=O)N[C@H]2C[C@H]3CC[C@]2(C)C3(C)C)c1=O [III-127] . Its Papp was 1 to 10 ×10⁻⁶ cm/s

---

Assay: Log D shake flask method (octanol / PBS pH 7.4, HPLC)
Assay type: physicochemical
Settings: octanol/phosphate-buffered saline (PBS); octanol / PBS pH 7.4, shake flask
A collection of compounds and their measured logD

Study these solved cases before continuing.
COC(=O)/C=C/CC[C@H](NC(=O)c1oc2ccccc2c1C)C(=O)Nc1cccn(CC(=O)NC23CC4(C)CC(C)(CC(C)(C4)C2)C3)c1=O
3 to 5
COC(=O)/C=C/CC[C@H](NC(=O)c1oc2ccccc2c1C)C(=O)Nc1cccn(CC(=O)NC2CC3CCC2CC3)c1=O (some centres unmarked)
3 to 5
COC(=O)/C=C/CC[C@H](NC(=O)c1sc(C(F)(F)F)nc1C)C(=O)Nc1cccn(CC(=O)NC23CC4CC(C)(CC(C)(C4)C2)C3)c1=O
3 to 5
Cc1c(C(=O)N[C@@H](CC/C=C/C(=O)N(C)C)C(=O)Nc2cccn(CC(=O)NC3C4CC5CC(C4)CC3C5)c2=O)oc2ccccc12 (some centres unmarked)
3 to 5

Proceed to the following item.
Entry under test: CC(C)OC(=O)/C=C/CC[C@H](NC(=O)c1cn[nH]n1)C(=O)Nc1cccn(CC(=O)NC23CCC(C2)C3)c1=O . Its logD was < 1
